Quick reference for composite z-score among some compounds
protocol details: small-molecule microarray binders of probe aShh, primary screen, biochemical, biotinylated probe, 635/667 nm fluorescence (AID 1114);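 further: probe is biotin-labelled aShh protein from a stem cell growth factor screen; measures binding of labelled protein to compounds printed on the slide; score merges feature fluorescence at 667 nm with signal-to-noise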
conditions used: higher = more signal
Lab note: write the figure by itself, no unit.

Short answer for `COCCOC(=O)N1C(=O)[C@@]2(c3cc(C#CC4=CCCCC4)ccc31)[C@H](C(=O)NC[C@H](O)c1ccccc1)[C@H]1C(=O)O[C@H](c3ccccc3)[C@H](c3ccccc3)N1[C@@H]2c1ccc(O)cc1` : composite z-score was -0.0055

Short answer for N#Cc1ccc(NN2C(C(O)c3cccs3)C=CC3C(=O)N(c4ccccc4)C(=O)C32)cc1 (configuration not stated) : composite z-score was -0.0977

Short answer for `CC(C)CNC(=O)[C@@H]1c2ccccc2C(=O)N(Cc2cc(C(F)(F)F)cc(C(F)(F)F)c2)[C@H]1c1ccc(CO)cc1` : composite z-score was -0.155

Short answer for COC(=O)c1ccc(OC)c(/C=C\CC(OC(C)=O)c2ccccc2)c1 (configuration not stated) : composite z-score was 0.0668

Short answer for `COCCOC(=O)N1C(=O)[C@@]2(c3cc(C#CCNC(N)=O)ccc31)[C@H](c1ccc(O)cc1)N1[C@H](c3ccccc3)[C@H](c3ccccc3)OC(=O)[C@H]1[C@@H]2C(=O)NC[C@H](O)c1ccccc1` : composite z-score was -0.119

Short answer for `N[C@@H](Cc1ccccc1)Cn1cc(-c2ccccc2)nn1` : composite z-score was -0.206

Short answer for `CC1=C2[C@@H](CCc3ccccc3)OB(O)C[C@@H]2n2c(=O)n(-c3ccccc3)c(=O)n2C1` : composite z-score was 0.133

Short answer for `CN(C)CCCNC(=O)[C@@]1(Cc2ccccc2I)c2ccccc2C(=O)N(Cc2ccccc2C(F)(F)F)[C@H]1c1ccc(CO)cc1` : composite z-score was -0.138

Short answer for COc1ccc(C(O)C2C=CC3C(=O)N(c4ccccc4)C(=O)C3N2Nc2ccc([N+](=O)[O-])cc2)cc1OCc1ccccc1 (configuration not stated) : composite z-score was 0.504

Short answer for `CCOC(=O)C[C@H]1[C@H](OC(=O)c2ccccc2-c2ccccc2)[C@@H](NC(=O)Cc2ccc(OC)cc2)c2cc(OCCCO)ccc2N1C(=O)c1ccccc1` : composite z-score was -0.327

Short answer for Cc1cc(C)c(C(O)C2C=CC3C(=O)N(C)C(=O)C3N2Nc2ccccc2)c(C)c1 (configuration not stated) : composite z-score was 0.365

Short answer for `COC(=O)[C@@]1(Cc2ccc(OC)cc2)[C@H]2c3cc(C(=O)N4CCCC4)n(CCc4c[nH]c5cc(F)ccc45)c3C[C@H]2CN1C(=O)c1ccccc1` : composite z-score was 0.265

Short answer for `COc1ccc(C(=O)Nc2cccc(CN3C(=O)[C@]4(O[C@H](CC(=O)N5CCC[C@H]5CO)[C@@H]([Si](C)(C)c5ccc(OC)cc5)[C@@H]4C)c4ccccc43)c2)cc1` : composite z-score was -0.0959

Short answer for `CCCC[C@@H]1C[C@H]1[C@@H](NC(=O)c1ccc(-c2ccccc2)cc1)c1ccc(-c2ccccc2)cc1` : composite z-score was 1.37

Short answer for `COCCCNC(=O)[C@@]1(C)c2ccccc2C(=O)N(Cc2cc(C(F)(F)F)cc(C(F)(F)F)c2)[C@H]1c1ccc(CO)cc1` : composite z-score was -0.0626

Short answer for `O=C/C=C/c1ccc(Cl)cc1` : composite z-score was -0.147

====

target entity: Torsin-1A-interacting protein 2 (Homo sapiens)
protocol details: LULL1 binders on small-molecule microarray, primary screen, cell lysate, human LULL1 lysate, 635/667 nm fluorescence (AID 1092);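 further: probe is lysate of COS7 cells overexpressing human LULL1; score merges per-feature 667 nm fluorescence with signal-to-noise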
conditions used: hLULL1 lysate binding, 635 nm fluorescence, higher = more signal
Quick reference for composite z-score among some compounds
Lab note: write the figure by itself, no unit.

compound=O=C(CS)NCCCCCCNC(=O)[C@@H]1C[C@@H]2C(=O)N3CCC[C@H]3C(=O)N2[C@@H]1c1ccc(O)cc1 target_entity="Torsin-1A-interacting protein 2 (Homo sapiens)" value_type="composite z-score" obs_value=2.54
compound=COC(=O)c1c(CC[C@@H](CO)NC(=O)N[C@@H](Cc2ccccc2)Cn2cc(C3(O)CCCCC3)nn2)oc(C(C)=O)c1C(=O)OC target_entity="Torsin-1A-interacting protein 2 (Homo sapiens)" value_type="composite z-score" obs_value=1.38
compound="CC=CC(O)C1C=CC2C(=O)N(c3ccccc3)C(=O)C2N1Nc1ccc(C(C)C)cc1 (centres undefined)" target_entity="Torsin-1A-interacting protein 2 (Homo sapiens)" value_type="composite z-score" obs_value=3.13

Turning now to a further record.
Short answer for `C=C(C(=O)CC[C@H](OC(C)=O)c1ccc(OCCO)cc1)C(C)C` : composite z-score was 0.739

====

protocol details: basal S. cerevisiae growth modulation, no modifier, primary screen, OD600, strain BY4716, 24 h, basal condition (AID 1173)
conditions used: OD600, 24 h, higher = more signal, called active from +8 up or from −8 down
Returns condition met if the recorded z-score is greater than or equal to 0.01, and condition not met otherwise.

See these solved cases before continuing.
molecule=CCOC(=O)C1=CC[C@@H](c2ccccc2)N(S(=O)(=O)c2ccc(C)cc2)[C@H]1C(=O)OCC class_assignment="condition met"
molecule="CCCCCCCCCCC(O)C1C=CC2C(=O)N(Cc3ccccc3)C(=O)C2N1n1cnnc1 (stereo not drawn)" class_assignment="condition not met"
molecule=O=C1N(CCS(=O)(=O)c2ccccc2)c2ccccc2C[C@@]12COC(c1ccc(OCCCO)cc1)=N2 class_assignment="condition met"
molecule="Cc1cc(C)c(C(O)C2C=CC3C(=O)N(c4ccccc4)C(=O)C3N2Nc2ccc(C#N)cc2)c(C)c1 (stereo not drawn)" class_assignment="condition met"
molecule=CC(C)NC(=O)[C@@H]1c2ccccc2C(=O)N(Cc2ccccc2)[C@H]1c1ccc(CO)cc1 class_assignment="condition met"

Ask: Quick check, z-score >= 0.01? `CO[C@H]1O[C@H](CO)[C@@H](OC(=O)Nc2ccc(Oc3ccccc3)cc2)[C@H](OC(=O)Nc2ccccc2)[C@H]1OC(=O)Nc1ccccc1`
Result: condition not met

Ask: Quick check, z-score >= 0.01? `[N-]=[N+]=NCc1ccccc1C[C@]1(C(=O)NCCN2CCOCC2)N=C(c2ccc(OCCCO)cc2)O[C@H]1c1ccccc1N=[N+]=[N-]`
Result: condition not met

Ask: Quick check, z-score >= 0.01? `O=C(CS)NCCCCCCNC(=O)[C@@H]1C[C@@H]2C(=O)N3CCC[C@H]3C(=O)N2[C@@H]1c1ccc(O)cc1`
Result: condition met

====

protocol details: binders of probe aFGF2 on microarray, primary screen, stem cell growth factor project, biochemical, small-molecule microarray, fluorescence 635/667 (AID 1067);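 further: measures binding of biotinylated aFGF2 protein to printed compounds on slides; z-score merges feature fluorescence and signal-to-noise across triplicate slides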
conditions used: higher = more signal
Quick reference for composite z-score among some molecules
Lab note: write the figure by itself, no unit.

Short answer for `CC(C)N1C(=O)C[C@@](C(=O)NCc2ccccc2)(c2ccc([N+](=O)[O-])cc2)[C@H]1c1ccc(CO)cc1` : composite z-score was -0.138

Short answer for `COC(=O)[C@@]1(Cc2ccccc2)[C@H]2c3cc(C(=O)N(C)C)n(Cc4c(-c5ccccc5)noc4C)c3C[C@H]2CN1C(=O)c1ccccc1` : composite z-score was 0.308

Short answer for `C=CC(=C)C1=CCO[C@@H]1[C@H]1CCCN1S(=O)(=O)c1ccccc1[N+](=O)[O-]` : composite z-score was -0.0716

Short answer for `CN(C)C(=O)[C@]1(CCC(=O)OC(C)(C)C)N=C(c2ccc(OCCCO)cc2)O[C@@H]1c1ccccc1N=[N+]=[N-]` : composite z-score was 0.147

Short answer for Cc1cc(C)c(C(O)C2C=CC3C(=O)N(c4ccccc4)C(=O)C3N2Nc2ccc(C#N)cc2)c(C)c1 (centres undefined) : composite z-score was 0.111

Short answer for `C=C(CCCC)C(=O)CC[C@H](OC(=O)c1cccnc1)c1cccc(OCCO)c1` : composite z-score was -0.157

Short answer for `Cc1ccc(S[C@]2(C(=O)NCC(C)C)CC(=O)N(Cc3ccccc3Cl)[C@@H]2c2ccc(CO)cc2)cc1` : composite z-score was -0.151

Short answer for `CCOC(=O)C1=CC[C@@H](c2ccccc2Cl)N(S(=O)(=O)c2ccc(C)cc2)C1` : composite z-score was 0.102

Short answer for COc1ccc(C(O)C2C=CC3C(=O)NC(=O)C3N2Nc2ccccn2)cc1OCc1ccccc1 (centres undefined) : composite z-score was -0.0226

Short answer for `COCCOC(=O)N1C(=O)[C@@]2(c3cc(C#CCC(C(=O)OC)C(=O)OC)ccc31)[C@H](C(=O)N1CCCCCCC1)[C@H]1C(=O)O[C@H](c3ccccc3)[C@H](c3ccccc3)N1[C@@H]2c1ccc(OCCO)cc1` : composite z-score was 0.755

Short answer for `COc1ccc([Si](C)(C)[C@H]2[C@H](CCn3cc(CCO)nn3)O[C@@]3(C(=O)N(Cc4ccc(N5CCOC5=O)cc4)c4ccccc43)[C@@H]2C)cc1` : composite z-score was -0.0158

Short answer for `C=CCOC(=O)[C@H]1[C@@H]2C(=O)O[C@@H](c3ccccc3)[C@@H](c3ccccc3)N2[C@@H](c2ccc(OCCOC(=O)[C@@H]3C[C@@H]4C(=O)NCC(=O)N4[C@@H]3c3ccc(O)cc3)cc2)[C@]12C(=O)Nc1ccccc12` : composite z-score was -0.0296

Short answer for `COC(=O)[C@@]1(Cc2ccccc2)[C@H]2c3cc(C(=O)N4CCCC4)n(Cc4ccc(C)o4)c3C[C@H]2CN1C(=O)c1ccccc1` : composite z-score was -0.162

Short answer for `CC1=C2[C@@H](CCc3ccccc3)OB(O)C[C@@H]2n2c(=O)n(-c3ccccc3)c(=O)n2C1` : composite z-score was -0.132
